details: in n-butanol, 318.15 K
ATTRIBUTE_MEASURED: solubility (mole fraction)

Please report the measured solubility (mole fraction) for "CSc1nc2cc(Oc3cccc(Cl)c3Cl)c(Cl)cc2[nH]1"
0.0473

* * *

conditions: in isopropanol, 278.15 K
ATTRIBUTE_MEASURED: solubility (mole fraction)
Format: numeric value only, no unit, no commentary.

Please report the measured solubility (mole fraction) for "CSc1nc2cc(Oc3cccc(Cl)c3Cl)c(Cl)cc2[nH]1"
0.00215

* * *

conditions: in ethylene glycol, 303.15 K
ATTRIBUTE_MEASURED: solubility (mole fraction)

Please report the measured solubility (mole fraction) for "CSc1nc2cc(Oc3cccc(Cl)c3Cl)c(Cl)cc2[nH]1"
0.0012
